Test system: Peroxisome proliferator-activated receptor gamma (Homo sapiens) (UniProt P37231)
Sequence (P37231 whole entry, looked up): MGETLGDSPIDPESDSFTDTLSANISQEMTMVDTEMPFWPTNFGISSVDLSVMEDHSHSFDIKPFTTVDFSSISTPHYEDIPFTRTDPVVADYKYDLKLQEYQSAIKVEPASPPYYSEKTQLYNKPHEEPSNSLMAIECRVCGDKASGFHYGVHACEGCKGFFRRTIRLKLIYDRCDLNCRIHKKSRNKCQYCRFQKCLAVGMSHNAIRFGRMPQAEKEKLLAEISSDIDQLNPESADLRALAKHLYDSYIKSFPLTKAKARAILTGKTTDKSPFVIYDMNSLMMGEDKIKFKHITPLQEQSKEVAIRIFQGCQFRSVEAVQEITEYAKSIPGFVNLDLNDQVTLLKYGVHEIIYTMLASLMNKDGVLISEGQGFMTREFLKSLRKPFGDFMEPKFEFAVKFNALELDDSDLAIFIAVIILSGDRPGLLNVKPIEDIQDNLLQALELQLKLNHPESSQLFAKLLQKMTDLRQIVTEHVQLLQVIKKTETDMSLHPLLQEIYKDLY
Assay explanation: ATG_PPARg_TRANS: Attagene TRANS-FACTORIAL HepG2 Assay for human Peroxisome Proliferator-activated Receptor-gamma (PPARg) (AID 2283007)
Results filed as inconclusive are left out. Activity calls are given as the source filed them. The calls were made as follows: active = hit-call score of the fitted dose curve at least 0.9, where 1 is the maximum; inconclusive = response in the unintended direction; inactive = score below 0.9.
Result type: AC50

Example entries begin here.
Compound | AC50
O=C(c1ccccc1)C1CCC1 | inactive
CCN(Cc1cccc(S(=O)(=O)O)c1)c1ccc(C(=C2C=CC(=[N+](CC)Cc3cccc(S(=O)(=O)[O-])c3)C=C2)c2ccccc2)cc1 | 31.1 µM (active)
CC(C)C1=CC2=CC[C@@H]3[C@](C)(CCC[C@@]3(C)C(=O)O)[C@H]2CC1 | 43.9 µM (active)
O=C(c1ccccc1)c1ccc(O)c(O)c1O | 47 µM (active)
OCCN(CCO)c1ccccc1 | inactive

response.value for "O=c1c2ccccc2nnn1CCl" (field: AC50) = inactive

response.value for CCCCC(CC)COC(=O)c1ccccc1O (stereo not drawn) (field: AC50) = inactive

response.value for "CCCCCCCCCCCCCCCC[n+]1ccccc1" (field: AC50) = inactive

response.value for "Nc1cccc(C(F)(F)F)c1" (field: AC50) = inactive

response.value for "O=C1c2cccc(O)c2C(=O)c2c(O)cc(CO)cc21" (field: AC50) = 50.3 µM (active)

response.value for "CCOC(=O)c1ccccc1C(=C1C=C(Br)C(=O)C(Br)=C1)c1cc(Br)c(O)c(Br)c1" (field: AC50) = 3.1 µM (active)

response.value for "CCc1ccc2c(c1)C(=O)c1ccccc1C2=O" (field: AC50) = 24.3 µM (active)

response.value for "Nc1ccc2cc3ccccc3cc2c1" (field: AC50) = 26.8 µM (active)

response.value for "Cc1ccc2c(c1)C(=O)c1ccccc1C2=O" (field: AC50) = 15.1 µM (active)

response.value for "CC(=O)Oc1ccc(C)cc1" (field: AC50) = inactive

response.value for "CCCCCCCCCCC=CC#N" (field: AC50) = 28.2 µM (active)

response.value for "Cc1ccc(N/N=c2\c(=O)cc/c(=N/Nc3ccc(S(=O)(=O)O)cc3)c2=O)c(C)c1" (field: AC50) = inactive

response.value for "CC1=Nc2ccc3ccccc3c2C1(C)C" (field: AC50) = 40.5 µM (active)

* * *

Test system: Peroxisome proliferator-activated receptor gamma (Homo sapiens)
Assay explanation: ATG_PPARg_TRANS: Attagene TRANS-FACTORIAL HepG2 Assay for human Peroxisome Proliferator-activated Receptor-gamma (PPARg) (AID 2283007)
Records with an inconclusive call do not appear. Activity calls are given as the source filed them. The calls were made as follows: active = hit-call score of the fitted dose curve at least 0.9, where 1 is the maximum; inconclusive = response in the unintended direction; inactive = score below 0.9.
Result type: AC50

Example entries begin here.
Compound | AC50
CC(C)C(=O)C(C)C | 6.38 µM (active)
CC(C)(C)c1n[nH]c(=O)n(N)c1=O | inactive
O=C(Oc1ccccc1)c1ccc2ccccc2c1O | 15.9 µM (active)
C1CN(SSN2CCOCC2)CCO1 | inactive
CCCCC/C=C\C/C=C\CCCCCCCC(=O)OC | 4.68 µM (active)
C=CC(=O)OCC(Br)CBr (configuration not stated) | 51.6 µM (active)

response.value for "O=c1cc(-c2ccccc2)oc2ccccc12" (field: AC50) = 1.1 µM (active)

response.value for "CCc1nccnc1C" (field: AC50) = inactive

response.value for "CC(C)c1ccc2cc(C(C)C)ccc2c1" (field: AC50) = inactive

response.value for "CCCCC/C=C\CCC=O" (field: AC50) = 53.6 µM (active)

response.value for "CCN(CCO)c1cccc(C)c1" (field: AC50) = inactive

response.value for "C/C=C\C/C=C/CCCCCCCCOC(C)=O" (field: AC50) = 8.89 µM (active)

response.value for "C=C[C@](C)(O)CC[C@@H]1[C@@]2(C)CCCC(C)(C)[C@@H]2CC[C@@]1(C)O" (field: AC50) = inactive
